# System: OVCAR-8 ovarian
# assay.text: NCI-60 one-dose screen, 48 h
# run.conditions: 10 µM unless noted
This is part of a sample that, as a whole, favours compounds with a hit. Of some 83,000 tested, about 20% had one in any assay. Activity calls are given as the source filed them. How the source made its calls: active means growth percent below 10; inactive means the rest.
Log the outcome using a class from active, inactive

>>> cat("Cc1c2c(cc[n+]1Cc1ccccc1)c1ccc(OCc3ccccc3)cc1n2Cc1ccccc1")
"active"
>>> cat("COc1ccc(C(=O)/C=C/c2cn(Cc3ccc(Cl)cc3)c3ccccc23)cc1")
"inactive"
>>> cat("CCN(CCNc1cc(OC)cc2cccnc12)CCc1ccccc1")
"inactive"
>>> cat("Clc1nc(Cl)c2ncn(CCOCCn3cnc4c(Cl)nc(Cl)nc43)c2n1")
"active"
>>> cat("Cc1cccc(Oc2ccc(Nc3ncnc4ccc(NC(=O)CN(C)C)cc34)cc2Cl)c1")
"inactive"

*Q* Can you look up the reported call for COc1ccc(-c2c(-c3ccccc3)noc2N)cc1OC for me?
*A* inactive

*Q* Can you look up the reported call for COc1cccc(/C=C2\COc3ccc(-c4ccccc4)cc3C2=O)c1 for me?
*A* active

*Q* Can you look up the reported call for Cc1cccc(Oc2ccc(Nc3ncnc4ccc(NC(=O)CNCCO)cc34)cc2Cl)c1 for me?
*A* inactive

*Q* Can you look up the reported call for C[C@H]1[C@H](C)CC[C@]2(CO)CC[C@]3(C)C(=CC[C@@H]4[C@@]5(C)Cc6c([nH]c7ccccc67)C(C)(C)[C@@H]5CC[C@]43C)[C@H]12 for me?
*A* inactive

*Q* Can you look up the reported call for Clc1ccc(C2CC(c3cccc(Nc4ccncc4)c3)=NN2c2ccccc2)cc1 (configuration not stated) for me?
*A* active

*Q* Can you look up the reported call for CCCCCCCCCCCCCCCC(=O)OC[C@@]1(O)C[C@@]23CC[C@@H]4C(C)(C)CCC[C@@]4(C)[C@@H]2CC[C@H]1C3 for me?
*A* inactive

*Q* Can you look up the reported call for Cn1c(COC(=O)N2CCCCC2)nc2c(N3CCOCC3)nc(-c3ccccc3)nc21 for me?
*A* active

* * *

# System: SF-295 CNS
# assay.text: NCI-60 one-dose screen, 48 h
# run.conditions: 10 µM unless noted
Compounds without any hit were thinned out: in the full panel of roughly 83,000, 20% have a hit. Active and inactive are the calls of the source. How the source made its calls: active means growth percent below 10; inactive means the rest.
Log the outcome using a class from True for active, False for inactive

Below are worked cases with known answers.
>>> cat("N#Cc1cc(-c2nc3ccccc3s2)c(=O)n(NS(=O)(=O)c2ccc(Cl)cc2)c1N")
"False"
>>> cat("C=C1C(=O)O[C@H]2[C@H]1CC/C(COC(=O)CCCc1c[nH]c3ccccc13)=C\\CC[C@@]1(C)O[C@@H]21")
"False"

*Q* Can you look up the reported call for CCOC(=O)N1CCc2c(sc3nc4nc[nH]n4c(=O)c23)C1 for me?
*A* False

*Q* Can you look up the reported call for O=C(CSc1nc2sc3c(c2c(=O)n1Cc1ccccc1)CCCC3)N1CCN(c2ccccc2)CC1 for me?
*A* False

*Q* Can you look up the reported call for Nc1ccccc1NC(=O)c1ccc(CN2CCC/C(=C\c3cccc(Cl)c3)C2=O)cc1 for me?
*A* False

*Q* Can you look up the reported call for c1ccc(-c2nn(-c3ccccc3)[n+](-c3cccc4ccccc34)n2)cc1 for me?
*A* False

*Q* Can you look up the reported call for CC(=O)c1c[nH]c2ccc(-c3ccnc(Nc4ccc(NC(=O)c5cccc(F)c5)c(CN5CCOCC5)c4)n3)cc12 for me?
*A* True

*Q* Can you look up the reported call for CC[C@H](C)[C@@H]1NC(=O)[C@H](Cc2ccc(O)cc2)N(C)C(=O)[C@H](Cc2ccccc2)NC(=O)CN(C)C(=O)[C@@H]2CCCN2C(=O)[C@@H](Cc2ccccc2)N(C)C(=O)[C@H](CC(C)C)NC1=O for me?
*A* True

*Q* Can you look up the reported call for COc1cc(/C=C/C(=O)c2ccc(Nc3ncnc4ccccc34)cc2)cc(OC)c1 for me?
*A* False

*Q* Can you look up the reported call for COc1ccc(-c2nc(SC)nc(N3CCOCC3)c2C#N)cc1 for me?
*A* False

*Q* Can you look up the reported call for CC(C)(C#N)N1CCN(c2ccccc2Cl)CC1 for me?
*A* False

*Q* Can you look up the reported call for O=C1Nc2cc(-c3ccncc3)ccc2/C1=C/c1ccc[nH]1 for me?
*A* False

*Q* Can you look up the reported call for CC(C)(C)CC(C)(C)Nc1c(-c2ccc(C(F)(F)F)cc2)nc2cnccn12 for me?
*A* False
